Catalogue of melting point readings, one per entry.

Dear colleague, I am looking for the recorded melting point of the following molecule: Cc1ccc(C(=O)C=Cc2ccc[nH]2)cc1
158 to 160 °C

Dear colleague, I am looking for the recorded melting point of the following molecule: CCOC(=O)C(C)(C)Oc1ccc(-c2ccc(CCNC(=O)c3ccc(C)cc3)cc2)cc1
214 °C

Dear colleague, I am looking for the recorded melting point of the following molecule: CCCCCCCCCCCCCCC(=O)C(=O)N[C@@H](CCCC)C(=O)NCC(=O)OCC
63 to 65 °C

Dear colleague, I am looking for the recorded melting point of the following molecule: O=[N+]([O-])c1cn2c(n1)O[C@@H](COc1ccc(N3CCC(Cc4ccc(OC(F)(F)F)cc4)CC3)cc1)C2
160 to 164 °C

Dear colleague, I am looking for the recorded melting point of the following molecule: CCC(C)Nc1c(N)cc(C)c(C)c1[N+](=O)[O-] (stereo not given)
36 to 37 °C

Dear colleague, I am looking for the recorded melting point of the following molecule: COc1cc(OC)c2c(=O)[nH]c(-c3ccc(Cc4nnn[nH]4)cc3)nc2c1
295 to 296 °C

Dear colleague, I am looking for the recorded melting point of the following molecule: CN1N=C(c2ccccc2)CC1=O
211 °C

Dear colleague, I am looking for the recorded melting point of the following molecule: N=C(NO)c1cc(Oc2ccc(Cl)cc2Cl)c(O)cc1Cl
137 °C

###

Catalogue of melting point readings, one per entry.

Dear colleague, I am looking for the recorded melting point of the following compound: OC(C(=Cc1cccnc1)c1ccc(F)cc1)c1ccccc1Cl (configuration not stated)
82 to 83 °C

Dear colleague, I am looking for the recorded melting point of the following compound: COc1ccc(C(=O)c2cn3c4c(cccc24)OCC3CN2CCOCC2)cc1 (configuration not stated)
209 to 214 °C

Dear colleague, I am looking for the recorded melting point of the following compound: c1ccc(-c2nn3c(c2-c2nc4ncccc4o2)CCC3)nc1
182 to 184 °C

Dear colleague, I am looking for the recorded melting point of the following compound: CCOCc1nc2c(N)nc3cccnc3c2n1CC1(O)CCCC1
165 to 166 °C

Dear colleague, I am looking for the recorded melting point of the following compound: N#Cc1ncc(Cl)nc1Br
66 to 67 °C

Dear colleague, I am looking for the recorded melting point of the following compound: CN1C(=O)C(NC(=O)CCC2CCCCC2)N=C(c2ccccc2)c2ccsc21 (configuration not stated)
189 to 190 °C

Dear colleague, I am looking for the recorded melting point of the following compound: Cc1ccc(C2OCC(C)(CO)CO2)cc1 (configuration not stated)
104 to 106 °C

###

Measurement Label: melting point

Example cases with answers are listed next.
>>> print(df.to_string())
                                   compound  measurement_label  observed_result
0  COc1c(N2C[C@]3(C)CC[C@]3(N)C2)c(F)cc2c(=O)c(C(=O)O)cn([C@@H]3C[C@@H]3F)c12      melting point    123 to 125 °C
1  CCCc1nc2c(ccc3cc(C(=O)N4CCC(Cc5ccccc5)CC4)[nH]c32)o1      melting point    195 to 196 °C

Dear colleague, I am looking for the recorded melting point of the following compound: OC1CSC(Sc2ccccc2C(F)(F)F)C(O)C1O (centres undefined)
114 to 115 °C

Dear colleague, I am looking for the recorded melting point of the following compound: Cc1n[nH]c2cc(-c3nn(Cc4oc5ccc(F)cc5c(=O)c4-c4ccccc4)c4ncnc(N)c34)ccc12
277 to 279 °C
